Target or system CYP2E1 (Homo sapiens): recorded IC50 listed per item.

{"compound": "Cc1c(O)c(C)c2c(c1O)C(=O)CC(c1ccc(O)cc1)O2 (single isomer, unassigned; (-)) [(−)-farrerol]", "IC50": "> 50 µM"}
{"compound": "Cc1c(O)c(C)c2c(c1O)C(=O)CC(c1ccc(O)cc1)O2 (single isomer, unassigned; (+)) [(+)-farrerol]", "IC50": "> 50 µM"}

----------
measured on: CYP2A6 (Homo sapiens, UniProt P11509)
protocol details: CYP inhibition in liver microsomes (coumarin)
Experimental: A liver microsome working solution (20 mg/mL) contained potassium phosphate buffer (0.1 M, pH 7.4), hepatic microsomes and marker substrate solution, which phenacetin, diclofenic acid, S-mephenytoinwer, dextromethorphan, midazolam, coumarin and chlorzoxazone used as substrates for […], CYP2C9, CYP2C19, CYP2D6, CYP3A4/5, CYP2A6 and CYP2E1, respectively. […] After centrifuging at 4000 rpm for 15 min, the supernatant was transferred and analyzed using LC-MS/MS to detect the corresponding metabolites. […]
measurement name: IC50

{"compound": "Cc1c(O)c(C)c2c(c1O)C(=O)CC(c1ccc(O)cc1)O2 (single isomer, unassigned; (+)) [(+)-farrerol]", "measured on": "CYP2A6 (Homo sapiens, UniProt P11509)", "value reported": "> 50 µM"}

----------
protocol details: Stereoselective pharmacokinetics in rat plasma
Format: in vivo, Sprague–Dawley rats
study conditions: Sprague-Dawley, rat, plasma, iv, 4 mg/kg, i.v. of farrerol racemate (4 mg/kg)
measurement name: AUC(0-t) (ng·h/mL)

{"compound": "Cc1c(O)c(C)c2c(c1O)C(=O)CC(c1ccc(O)cc1)O2 (single isomer, unassigned; (+)) [(+)-farrerol]", "measurement name": "AUC(0-t)", "value reported": 1460}

----------
protocol details: Stereoselective pharmacokinetics in rat plasma
Assay type: in vivo, Sprague–Dawley rats
study conditions: Sprague-Dawley, rat, plasma, po, 150 mg/kg, i.g. of farrerol racemate (150 mg/kg), read-out: MRT(0–t)

{"compound": "Cc1c(O)c(C)c2c(c1O)C(=O)CC(c1ccc(O)cc1)O2 (single isomer, unassigned; (+)) [(+)-farrerol]", "MRT last / h": 5.98}

----------
protocol details: Stereoselective pharmacokinetics in rat plasma
Type: in vivo, Sprague–Dawley rats
study conditions: Sprague-Dawley, rat, plasma, po, 75 mg/kg, i.g. of the single enantiomer (75 mg/kg)

{"compound": "Cc1c(O)c(C)c2c(c1O)C(=O)CC(c1ccc(O)cc1)O2 (single isomer, unassigned; (-)) [(−)-farrerol]", "half-life, h": 12}

----------
protocol details: Stereoselective pharmacokinetics in rat plasma
Assay type: in vivo, Sprague–Dawley rats
study conditions: Sprague-Dawley, rat, plasma, po, 75 mg/kg, i.g. of the single enantiomer (75 mg/kg), read-out: MRT(0–t)

{"compound": "Cc1c(O)c(C)c2c(c1O)C(=O)CC(c1ccc(O)cc1)O2 (single isomer, unassigned; (-)) [(−)-farrerol]", "reading unit": "h", "MRT last": 10.8}

----------
protocol details: Stereoselective pharmacokinetics in rat kidney tissue
Assay type: in vivo, Sprague–Dawley rats
study conditions: Sprague-Dawley; rat kidney; oral 40 mg/kg farrerol racemate; read-out: Tmax
measurement name: Tmax (h)

{"compound": "Cc1c(O)c(C)c2c(c1O)C(=O)CC(c1ccc(O)cc1)O2 (single isomer, unassigned; (+)) [(+)-farrerol]", "value reported": 1}

----------
measured on: CYP2A6 (Homo sapiens)
Sequence (P11509 1-494): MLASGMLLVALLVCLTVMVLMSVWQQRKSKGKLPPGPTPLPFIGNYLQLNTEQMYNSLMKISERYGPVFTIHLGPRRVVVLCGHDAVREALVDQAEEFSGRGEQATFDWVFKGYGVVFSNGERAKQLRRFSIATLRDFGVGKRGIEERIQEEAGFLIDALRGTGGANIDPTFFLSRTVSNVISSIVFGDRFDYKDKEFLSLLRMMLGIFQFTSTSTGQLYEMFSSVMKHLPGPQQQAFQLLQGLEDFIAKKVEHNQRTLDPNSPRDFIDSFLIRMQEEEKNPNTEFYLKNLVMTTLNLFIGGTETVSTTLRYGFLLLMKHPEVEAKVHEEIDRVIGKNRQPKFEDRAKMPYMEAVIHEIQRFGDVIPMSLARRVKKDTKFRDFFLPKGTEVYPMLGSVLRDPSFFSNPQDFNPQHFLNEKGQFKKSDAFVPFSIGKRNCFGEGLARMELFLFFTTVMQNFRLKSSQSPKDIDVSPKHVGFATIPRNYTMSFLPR
protocol details: CYP inhibition in liver microsomes (coumarin)
study conditions: CYP 2A6; marker substrate coumarin; liver microsomes
measurement name: IC50 (nM)

{"molecule": "Cc1c(O)c(C)c2c(c1O)C(=O)CC(c1ccc(O)cc1)O2 (single isomer, unassigned; (-)) [(−)-farrerol]", "measurement name": "IC50", "reading unit": "nM", "comparison operator": ">", "value reported": 50000}
{"molecule": "N[C@@H]1C[C@H]1c1ccccc1 (racemic) [Tranylcypromine, reference compound]", "measurement name": "IC50", "reading unit": "nM", "comparison operator": "=", "value reported": 383}

----------
Below is a list of entries, each paired with its recorded IC50 value.
Test system: CYP3A4/5
protocol details: CYP inhibition in liver microsomes (midazolam)
study conditions: CYP 3A4/5(M); marker substrate midazolam; liver microsomes

{"molecule": "Cc1c(O)c(C)c2c(c1O)C(=O)CC(c1ccc(O)cc1)O2 (single isomer, unassigned; (-)) [(−)-farrerol]", "comparison operator": "=", "IC50 / M": "2.09e-05"}
{"molecule": "Cc1c(O)c(C)c2c(c1O)C(=O)CC(c1ccc(O)cc1)O2 (single isomer, unassigned; (+)) [(+)-farrerol]", "comparison operator": ">", "IC50 / M": "5e-05"}

----------
protocol details: Stereoselective pharmacokinetics in rat liver tissue
Type: in vivo, Sprague–Dawley rats
study conditions: Sprague-Dawley, rat, liver, po, 40 mg/kg, rat liver; oral 40 mg/kg farrerol racemate; read-out: Cmax

{"compound": "Cc1c(O)c(C)c2c(c1O)C(=O)CC(c1ccc(O)cc1)O2 (single isomer, unassigned; (+)) [(+)-farrerol]", "Cmax [ng/g]": 104000}

----------
System: CYP3A4/5
protocol details: CYP inhibition in liver microsomes (midazolam)
study conditions: human, microsomes, pH 7.4
measurement name: IC50 at 10 min (nM)

{"compound": "CC(=O)N1CCN(c2ccc(OCC3COC(Cn4ccnc4)(c4ccc(Cl)cc4Cl)O3)cc2)CC1 (stereo not shown) [ketoconazole, reference compound]", "measurement name": "IC50 at 10 min", "value reported": 10.4}

----------
protocol details: Stereoselective pharmacokinetics in rat plasma
Type: in vivo, Sprague–Dawley rats
study conditions: Sprague-Dawley, rat, plasma, po, 150 mg/kg, i.g. of farrerol racemate (150 mg/kg), read-out: Tmax

{"compound": "Cc1c(O)c(C)c2c(c1O)C(=O)CC(c1ccc(O)cc1)O2 (single isomer, unassigned; (+)) [(+)-farrerol]", "reading unit": "h", "Tmax": 1.5}

----------
protocol details: Stereoselective pharmacokinetics in rat kidney tissue
Format: in vivo, Sprague–Dawley rats
study conditions: Sprague-Dawley, rat, kidney, po, 40 mg/kg, rat kidney; oral 40 mg/kg farrerol racemate; read-out: Cmax
Description: Forty-two rats were divided randomly into seven groups (6 rats per time point at 0.5, 1, 2, 4, 8, 12, and 24 h) and were orally administered farrerol racemate at a dose of 40 mg/kg. […] Mass detection was conducted using a triple quadrupole mass spectrometer (Waters Co., USA) equipped with an electrospray ionization (ESI) source. […] The m/z 299→179 for enantiomers and m/z 267→252 for IS were selected as detecting ions for quantitation. […]

{"molecule": "Cc1c(O)c(C)c2c(c1O)C(=O)CC(c1ccc(O)cc1)O2 (single isomer, unassigned; (+)) [(+)-farrerol]", "reading unit": "ng/g", "Cmax": 3020}

----------
protocol details: Stereoselective pharmacokinetics in rat plasma
Assay type: in vivo, Sprague–Dawley rats
study conditions: Sprague-Dawley, rat, plasma, iv, 4 mg/kg, i.v. of farrerol racemate (4 mg/kg)

{"compound": "Cc1c(O)c(C)c2c(c1O)C(=O)CC(c1ccc(O)cc1)O2 (single isomer, unassigned; (+)) [(+)-farrerol]", "reading unit": "ng·h/mL", "AUC(0-inf)": 1550}

----------
protocol details: Stereoselective pharmacokinetics in rat liver tissue
Assay type: in vivo, Sprague–Dawley rats
study conditions: Sprague-Dawley; rat liver; oral 40 mg/kg farrerol racemate; read-out: Tmax

{"molecule": "Cc1c(O)c(C)c2c(c1O)C(=O)CC(c1ccc(O)cc1)O2 (single isomer, unassigned; (+)) [(+)-farrerol]", "Tmax [h]": 2}

----------
protocol details: Stereoselective pharmacokinetics in rat plasma
Assay type: in vivo, Sprague–Dawley rats
study conditions: Sprague-Dawley, rat, plasma, po, 150 mg/kg, i.g. of farrerol racemate (150 mg/kg), read-out: Cmax
measurement name: Cmax

{"compound": "Cc1c(O)c(C)c2c(c1O)C(=O)CC(c1ccc(O)cc1)O2 (single isomer, unassigned; (+)) [(+)-farrerol]", "measurement name": "Cmax", "value reported": "457 ng/mL"}
